target.or.system: UniProtKB P05067
Sequence (P05067 whole entry): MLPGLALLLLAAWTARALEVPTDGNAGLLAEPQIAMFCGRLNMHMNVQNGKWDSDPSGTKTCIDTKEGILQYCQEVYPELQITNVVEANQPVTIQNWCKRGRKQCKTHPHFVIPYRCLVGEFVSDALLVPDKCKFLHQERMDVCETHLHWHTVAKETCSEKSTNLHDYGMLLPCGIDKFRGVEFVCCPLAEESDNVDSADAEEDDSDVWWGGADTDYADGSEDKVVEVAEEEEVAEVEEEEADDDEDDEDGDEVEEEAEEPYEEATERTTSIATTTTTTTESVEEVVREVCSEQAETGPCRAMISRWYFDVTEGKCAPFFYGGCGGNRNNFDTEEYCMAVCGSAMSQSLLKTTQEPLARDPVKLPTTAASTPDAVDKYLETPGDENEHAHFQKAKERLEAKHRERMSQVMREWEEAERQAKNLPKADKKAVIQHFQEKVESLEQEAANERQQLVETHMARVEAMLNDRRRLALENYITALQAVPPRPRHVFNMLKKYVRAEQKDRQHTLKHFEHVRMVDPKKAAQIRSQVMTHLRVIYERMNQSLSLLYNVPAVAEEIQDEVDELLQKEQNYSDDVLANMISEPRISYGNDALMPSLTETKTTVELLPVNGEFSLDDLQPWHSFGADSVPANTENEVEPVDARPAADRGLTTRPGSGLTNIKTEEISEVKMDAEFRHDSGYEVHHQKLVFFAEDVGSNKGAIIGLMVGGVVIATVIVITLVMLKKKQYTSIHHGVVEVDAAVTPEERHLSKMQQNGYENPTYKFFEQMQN
assay.summary: Inhibition of amyloid beta (1 to 42) (unknown origin) self aggregation assessed as disaggregation
IC50 values by entry
// return the numeric value with its unit appended

Input: Identify measured IC50 associated with `O=c1ccoc(/C=C/c2ccc(N3CCCCC3)cc2)c1O`
Output: 27.2 µM

Input: Supply reported IC50 belonging to this compound: `CN(C)c1ccc(/C=C/c2occc(=O)c2O)cc1`
Output: 42.4 µM

Input: Return IC50 (reported value) for this compound: `COc1ccc(/C=C/c2occc(=O)c2O)cc1O`
Output: 43.2 µM

Input: Please give measured IC50 of the following entry: `O=c1ccoc(/C=C/c2ccc(N3CCSCC3)cc2)c1O`
Output: 28.5 µM

Input: # return recorded IC50 for entry `O=c1ccoc(/C=C/c2ccc(N3CCOCC3)cc2)c1O`
Output: 23.9 µM

Now consider a different compound.
Input: Look up and report measured IC50 for this entry: `O=c1ccoc(/C=C/c2ccc(O)c(O)c2)c1O`
Output: 6.87 µM

###

Each entry below lists one item and its recorded Nitric oxide release (% of LPS control) value.
Test system: BV-2
assay.summary: Antiinflammatory activity in LPS induced mouse BV-2 cells decrease in release of […] at 5 uM by […] (reference value: 100%)
Format: functional
Number only, in %; omit the unit.

Please review the entries below; each comes with its answer.
Input: Give Nitric oxide release (% of LPS control) for the following compound: `COc1cccc(/C=C/c2occc(=O)c2O)c1`
Output: 72.79

Input: Answer with the recorded Nitric oxide release (% of LPS control) of `O=c1ccoc(/C=C/c2ccc(-c3ccccc3)cc2)c1O` only.
Output: 87.38

Input: Give recorded Nitric oxide release (% of LPS control). `O=c1ccoc(/C=C/c2ccccc2F)c1O`
Output: 56.97

Input: Quote Nitric oxide release (% of LPS control) reported for `O=c1ccoc(/C=C/c2ccc(F)cc2)c1O` please.
Output: 88.36

Input: For `O=c1ccoc(/C=C/c2ccccc2Cl)c1O` , write its Nitric oxide release (% of LPS control).
Output: 54.58

New cases:
Input: Return reported Nitric oxide release (% of LPS control). Input compound: `COc1ccc(/C=C/c2occc(=O)c2O)cc1`
Output: 91.49

Input: Identify Nitric oxide release (% of LPS control) associated with the compound `O=c1ccoc(/C=C/c2ccc(O)c(F)c2)c1O`
Output: 86.66

Input: State its Nitric oxide release (% of LPS control): `O=c1ccocc1O`
Output: 93.85

Input: # return recorded Nitric oxide release (% of LPS control) for entry `O=c1ccoc(/C=C/c2ccc(N3CCOCC3)cc2)c1O`
Output: 100.11

Input: For `CN(C)c1ccc(/C=C/c2occc(=O)c2O)cc1` , write its Nitric oxide release (% of LPS control).
Output: 92.3

Input: Return value of Nitric oxide release (% of LPS control) for input `CC(C)(C)c1ccc(/C=C/c2occc(=O)c2O)cc1` , no commentary.
Output: 94.03

Input: Consider the compound `Cc1ccc(/C=C/c2occc(=O)c2O)cc1` . State its measured Nitric oxide release (% of LPS control).
Output: 85.2

Input: Consider the compound `O=c1ccoc(/C=C/c2cccc(F)c2)c1O` . State its measured Nitric oxide release (% of LPS control).
Output: 71.55

Input: Specify reported Nitric oxide release (% of LPS control) for the compound shown: `COc1cc(/C=C/c2occc(=O)c2O)ccc1O`
Output: 90.67
